Provenance of the data: patent US20060094790A1

Molecular target: sphingosine kinase (Mus musculus, UniProt Q8CI15)
Construct: host or cells: F9-12 cells
Sequence (Q8CI15 1-381 isoform Q8CI15-3): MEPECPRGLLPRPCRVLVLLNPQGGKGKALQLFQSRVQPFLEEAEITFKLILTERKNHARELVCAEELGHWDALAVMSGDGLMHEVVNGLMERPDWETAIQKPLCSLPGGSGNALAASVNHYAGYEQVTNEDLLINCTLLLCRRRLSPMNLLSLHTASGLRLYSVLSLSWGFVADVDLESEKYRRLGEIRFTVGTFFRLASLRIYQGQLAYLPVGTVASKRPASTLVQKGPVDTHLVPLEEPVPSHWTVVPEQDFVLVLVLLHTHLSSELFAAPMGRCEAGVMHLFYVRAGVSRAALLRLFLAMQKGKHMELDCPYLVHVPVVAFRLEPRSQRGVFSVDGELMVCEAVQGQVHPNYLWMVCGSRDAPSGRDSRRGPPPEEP
Test: Activation of sphingosine kinase (C17-sphingosine-1-phosphate production, HPLC)
Type: cell-based
Conditions: F9-12 cells, 24 hours; 50 μM compound, PMA 300 nM; non-treated control 51.72
Listing of entries alongside the reported C17-SIP Production.
Could you give me the number in pmol/min/mg? Just the number is fine.

Examples with their reported C17-SIP Production follow.
{"columns": ["compound", "assayed target", "result unit", "C17-SIP Production"],
 "data": [
  ["CCCCCCCC(=O)C(CCCCCC)C(=O)NC(CO)CO (centres unmarked)", "sphingosine kinase (Mus musculus, UniProt Q8CI15)", "pmol/min/mg", 75.59],
  ["CCCCCCCCCCCCCC(=O)O[C@@H]1[C@@H](C)[C@@]2(O)[C@@H](C=C(CO)C[C@]3(O)C(=O)C(C)=C[C@@H]23)[C@@H]2C(C)(C)[C@]12OC(C)=O [PMA, phorbol microstate acetate, reference compound]", "sphingosine kinase (Mus musculus, UniProt Q8CI15)", "pmol/min/mg", 76.76]
]}

Could you share which C17-SIP Production value was measured for CCCCCCCC(=O)C(CCCCCC)C(=O)NCCO (centres unmarked) [K6PC-9, N-ethanol-2-hexyl-3-oxo-decanamide] ? 66.72

Could you share which C17-SIP Production value was measured for CCCCCCCC(=O)C(CCCCCC)C(=O)NC(C)(CO)CO (centres unmarked) ? 75.51

Could you share which C17-SIP Production value was measured for CCCCCCCC(=O)C(CCCCCC)C(=O)NCC(O)CO (centres unmarked) ? 67.69
